Target: Serine/threonine-protein kinase 4 (Homo sapiens, UniProt Q13043); also: in the data inactive means no Kd found up to 30 µM
Sequence (Q13043 whole entry): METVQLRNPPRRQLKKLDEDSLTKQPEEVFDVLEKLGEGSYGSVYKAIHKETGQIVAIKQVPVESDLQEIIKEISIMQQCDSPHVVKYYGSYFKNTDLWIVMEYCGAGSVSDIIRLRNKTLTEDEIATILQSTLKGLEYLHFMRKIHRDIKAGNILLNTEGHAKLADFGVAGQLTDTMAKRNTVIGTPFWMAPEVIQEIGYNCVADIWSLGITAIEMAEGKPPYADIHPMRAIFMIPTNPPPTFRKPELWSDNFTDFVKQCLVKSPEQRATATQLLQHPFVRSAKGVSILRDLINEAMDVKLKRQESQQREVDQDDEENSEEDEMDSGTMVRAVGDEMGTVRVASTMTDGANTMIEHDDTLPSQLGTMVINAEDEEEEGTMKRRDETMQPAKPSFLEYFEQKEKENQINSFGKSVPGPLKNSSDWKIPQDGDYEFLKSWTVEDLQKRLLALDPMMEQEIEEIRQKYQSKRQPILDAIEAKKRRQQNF
Activity calls are given as the source filed them.
Outcomes: active, inactive

COMPOUND: COc1cc2c(Nc3ccc(Cl)c(Cl)c3F)ncnc2cc1OC[C@@H]1C[C@@H]2CN(C)C[C@@H]2C1
DISCRETE LABEL: inactive

COMPOUND: C[C@H]1CNCCCN1S(=O)(=O)c1cccc2cncc(F)c12
DISCRETE LABEL: inactive

COMPOUND: C[C@@H](Oc1cc(C(=O)Nc2ccc(C(=O)N3CCN(C)CC3)cc2)nnc1N)c1c(Cl)ccc(F)c1Cl
DISCRETE LABEL: inactive

COMPOUND: O=C1NC(=O)[C@@H](c2cn3c4c(cccc24)CCC3)[C@@H]1c1c[nH]c2ccccc12 [TIVANTINIB]
DISCRETE LABEL: inactive

COMPOUND: CC(=O)NCC(=O)N1[C@@H]2CC[C@H]1c1ccc(Nc3ncc(C(F)(F)F)c(NC4CCC4)n3)cc12
DISCRETE LABEL: active

COMPOUND: Cn1cc(-c2cnc3ccc4ccc(CS(=O)(=O)NCc5ccccn5)cc4c(=O)c3c2)cn1
DISCRETE LABEL: inactive

COMPOUND: CO[C@H]1C[C@@H]2CC[C@@H](C)[C@@](O)(O2)C(=O)C(=O)N2CCCC[C@H]2C(=O)O[C@H]([C@H](C)C[C@@H]2CC[C@@H](OC(=O)C(C)(CO)CO)[C@H](OC)C2)CC(=O)[C@H](C)/C=C(\C)[C@@H](O)[C@@H](OC)C(=O)[C@H](C)C[C@H](C)/C=C/C=C/C=C/1C
DISCRETE LABEL: inactive

COMPOUND: CC(C)(C)c1nc(-c2cccc(NS(=O)(=O)c3c(F)cccc3F)c2F)c(-c2ccnc(N)n2)s1
DISCRETE LABEL: inactive

COMPOUND: CNC(=O)c1cccc2cc(Oc3ccnc4cc(OCC5(N)CC5)c(OC)cc34)ccc12
DISCRETE LABEL: inactive

COMPOUND: CNC(=O)c1nn(C)c2c1C(C)(C)Cc1cnc(Nc3ccc(N4CCN(C)CC4)cc3)nc1-2
DISCRETE LABEL: inactive

COMPOUND: Cc1csc(-c2nnc(Nc3ccc(Oc4ncccc4-c4ccnc(N)n4)cc3)c3ccccc23)c1
DISCRETE LABEL: inactive

COMPOUND: CO[C@H]1C[C@@H]2CC[C@@H](C)[C@@](O)(O2)C(=O)C(=O)N2CCCC[C@H]2C(=O)O[C@H]([C@H](C)C[C@@H]2CC[C@@H](OP(C)(C)=O)[C@H](OC)C2)CC(=O)[C@H](C)/C=C(\C)[C@@H](O)[C@@H](OC)C(=O)[C@H](C)C[C@H](C)/C=C/C=C/C=C/1C
DISCRETE LABEL: inactive

COMPOUND: FC(F)(F)c1ccc(/C=C/c2nc(COc3ccc(CCCCn4ccnn4)cc3)co2)cc1
DISCRETE LABEL: inactive

COMPOUND: COCc1c(-c2ccc(NC(=O)Nc3cc(C(F)(F)F)ccc3F)c(F)c2)c2c(N)ncnn2c1CN1CCOCC1
DISCRETE LABEL: inactive

COMPOUND: Cn1ncc(Cl)c1-c1cc(C(=O)N[C@H](CN)Cc2ccc(F)c(F)c2)oc1Cl
DISCRETE LABEL: inactive

COMPOUND: COc1cc2ncnc(Oc3cccc(NC(=O)Nc4cc(C(C)(C)C(F)(F)F)on4)c3)c2cc1OC
DISCRETE LABEL: inactive

COMPOUND: C[C@@H](N)c1ccc(C(=O)Nc2ccnc3[nH]ccc23)cc1
DISCRETE LABEL: inactive

COMPOUND: Cc1nc(Nc2n[nH]c3c2CN(C(=O)N[C@H](CN(C)C)c2ccccc2)C3(C)C)c2sccc2n1
DISCRETE LABEL: active

COMPOUND: CO[C@H]1C[C@@H]2CC[C@@H](C)[C@@](O)(O2)C(=O)C(=O)N2CCCC[C@H]2C(=O)O[C@H]([C@H](C)C[C@@H]2CC[C@@H](O)[C@H](OC)C2)CC(=O)[C@H](C)/C=C(\C)[C@@H](O)[C@@H](OC)C(=O)[C@H](C)C[C@H](C)/C=C/C=C/C=C/1C
DISCRETE LABEL: inactive

COMPOUND: CCn1c(C(=O)N(C2CC2)C2CC2)cc2c3c(ncn3C)c(Nc3cc(C)n(C)n3)nc21
DISCRETE LABEL: inactive

COMPOUND: Nc1ncnc2c1c(-c1cccc(OCc3ccccc3)c1)cn2[C@H]1C[C@@H](CN2CCC2)C1
DISCRETE LABEL: active

COMPOUND: CN(C[C@@H]1COCCO1)S(=O)(=O)Nc1ccc2ccc3ncc(-c4cnn(C)c4)cc3c(=O)c2c1
DISCRETE LABEL: inactive

COMPOUND: O=c1[nH]ccc2cc(OC3CCNCC3)ccc12 [SAR-407899 FREE BASE]
DISCRETE LABEL: inactive

COMPOUND: O=C(Nc1cc(C(F)(F)F)cc(C(F)(F)F)c1)c1cc(Cl)ccc1O
DISCRETE LABEL: inactive

COMPOUND: NC(=O)Nc1cc(-c2cccc(F)c2)sc1C(=O)N[C@H]1CCCNC1
DISCRETE LABEL: active

COMPOUND: CC(=O)c1cnc2ccc(-c3cc(Cl)c(O)c(Cl)c3)nc2c1N[C@H]1CC[C@H](CN(C)C)CC1
DISCRETE LABEL: active

COMPOUND: COc1cc(Nc2ncc3c(n2)-c2ccc(Cl)cc2C(c2c(F)cccc2OC)=NC3)ccc1C(=O)O
DISCRETE LABEL: inactive

COMPOUND: COc1cc([C@@H]2c3cc4c(cc3[C@H](O)[C@H]3COC(=O)[C@@H]23)OCO4)cc(OC)c1OC
DISCRETE LABEL: inactive
